Hello, the source for this data is ChEMBL document CHEMBL5724914, in case you need it.

# Condition Details: human gut metagenome, 24 h, 2 µM; further: call rule not given here
Assay Endpoint: Bacterial Biotransformation

Check out these entries, answers already filled in.
CN1CCC[C@@H]1CCO[C@](C)(c1ccccc1)c1ccc(Cl)cc1.O=C(O)/C=C/C(=O)O [CLEMASTINE FUMARATE] has a reported Bacterial Biotransformation of Compound NOT metabolized

The value of Bacterial Biotransformation measured for the molecule COc1cc(C(=O)NCc2ccc(OCCN(C)C)cc2)cc(OC)c1OC [TRIMETHOBENZAMIDE] turned out to be Compound NOT metabolized

Measured Bacterial Biotransformation of CCN(CC)CCNC(=O)c1cc(S(C)(=O)=O)ccc1OC [TIAPRIDE] : Compound NOT metabolized

Looking up COc1ccc(CN2CCNCC2)c(OC)c1OC.Cl.Cl [TRIMETAZIDINE DIHYDROCHLORIDE] , I found its Bacterial Biotransformation recorded as Compound NOT metabolized

New cases:
Measured Bacterial Biotransformation of CC(C)c1c(CN(C)C(C)Cc2ccccc2)n(C)n(-c2ccccc2)c1=O (centres undefined) [FAMPROFAZONE] : Compound metabolized

Note to self: Bacterial Biotransformation recorded for OCCN(CCO)c1nc(N2CCCCC2)c2nc(N(CCO)CCO)nc(N3CCCCC3)c2n1 [DIPYRIDAMOLE] was Compound metabolized

The molecule identified as COc1ccc([C@@H]2Sc3ccccc3N(CCN(C)C)C(=O)[C@@H]2OC(C)=O)cc1 [DILTIAZEM] registered its Bacterial Biotransformation at Compound NOT metabolized

Note to self: Bacterial Biotransformation recorded for CC(=O)O[C@]1(C(C)=O)CC[C@H]2[C@@H]3C=C(C)C4=CC(=O)CC[C@]4(C)[C@H]3CC[C@@]21C [MEGESTROL ACETATE] was Compound metabolized

For reference, reported Bacterial Biotransformation for CN(C/C=C/C#CC(C)(C)C)Cc1cccc2ccccc12 [TERBINAFINE] stands at Compound NOT metabolized

Bacterial Biotransformation measured on N[C@@H](Cc1ccc(N(CCCl)CCCl)cc1)C(=O)O = Compound NOT metabolized

Looking up CC(CCc1ccccc1)NCC(O)c1ccc(O)c(C(N)=O)c1 (centres undefined) [LABETALOL] , I found its Bacterial Biotransformation recorded as Compound NOT metabolized

Documented Bacterial Biotransformation of N#Cc1ccc2[nH]cc(CCCCN3CCN(c4ccc5oc(C(N)=O)cc5c4)CC3)c2c1 [VILAZODONE] : Compound metabolized

Reported Bacterial Biotransformation ( COc1ccc(/C=C/C(=O)Nc2ccccc2C(=O)O)cc1OC ) = Compound NOT metabolized

O=C(O)c1cc(/N=N/c2ccc(S(=O)(=O)Nc3ccccn3)cc2)ccc1O [SULFASALAZINE] has a reported Bacterial Biotransformation of Compound metabolized

Form field Bacterial Biotransformation, entry Br.CN1CCC[C@@H]1Cc1c[nH]c2ccc(CCS(=O)(=O)c3ccccc3)cc12 [ELETRIPTAN HYDROBROMIDE] : Compound NOT metabolized

The molecule identified as CCOc1ccc2nc(S(N)(=O)=O)sc2c1 [ETHOXZOLAMIDE] registered its Bacterial Biotransformation at Compound NOT metabolized

Consider CN(C)CCOC(C)(c1ccccc1)c1ccccn1.O=C(O)CCC(=O)O (centres undefined) [DOXYLAMINE SUCCINATE] . Its measured Bacterial Biotransformation is Compound NOT metabolized

// sample CN(CCOc1ccc(CC2SC(=O)NC2=O)cc1)c1ccccn1.O=C(O)/C=C\C(=O)O (centres undefined) [ROSIGLITAZONE MALEATE] , its Bacterial Biotransformation was Compound NOT metabolized

Entry under test: CSc1ccc2c(c1)C(N1CCN(C)CC1)Cc1ccccc1S2.O=C(O)/C=C\C(=O)O (centres undefined) . Its Bacterial Biotransformation was Compound NOT metabolized

====

# Assay Comment: The drug is tested on WLS-350 corresponding to human gut metagenome with ENA study accession number: PRJEB37062 and ENA sample accession number: ERS12561789 for biotransformation under anaerobic condition. The drug concentrations were measured over 9 timepoints collected between 0 and 24 hours of incubation by liquid-chromatography-coupled mass spectrometry (LC–MS)
# Condition Details: 2 µM
Assay Endpoint: Bacterial Biotransformation

Here is how some compounds turned out for Bacterial Biotransformation.
// field: Bacterial Biotransformation; key: CC(C)(C)NC(=O)[C@H]1CC[C@H]2[C@@H]3CC[C@H]4NC(=O)C=C[C@]4(C)[C@H]3CC[C@]12C [FINASTERIDE] ; value = Compound metabolized

In plain terms, C=CC[C@@H]1/C=C(\C)C[C@H](C)C[C@H](OC)[C@H]2O[C@@](O)(C(=O)C(=O)N3CCCC[C@H]3C(=O)O[C@H](/C(C)=C/[C@@H]3CC[C@@H](O)[C@H](OC)C3)[C@H](C)[C@@H](O)CC1=O)[C@H](C)C[C@@H]2OC.O has a documented Bacterial Biotransformation of Compound NOT metabolized

Consider Nc1nnc(-c2cccc(Cl)c2Cl)c(N)n1 . Its measured Bacterial Biotransformation is Compound NOT metabolized

Data point: CCS(=O)(=O)CCn1c([N+](=O)[O-])cnc1C ; Bacterial Biotransformation = Compound metabolized

Bacterial Biotransformation for CC(C)c1nc(N(C)S(C)(=O)=O)nc(-c2ccc(F)cc2)c1/C=C/[C@@H](O)C[C@@H](O)CC(=O)[O-].CC(C)c1nc(N(C)S(C)(=O)=O)nc(-c2ccc(F)cc2)c1/C=C/[C@@H](O)C[C@@H](O)CC(=O)[O-].[Ca+2] is Compound metabolized

# input for lookup
Record summary for CC#CCn1c(N2CCC[C@@H](N)C2)nc2c1c(=O)n(Cc1nc(C)c3ccccc3n1)c(=O)n2C : reported Bacterial Biotransformation = Compound NOT metabolized

====

# Assay Comment: The drug is tested on WLS-240 corresponding to human gut metagenome with ENA study accession number: PRJEB37062 and ENA sample accession number: ERS12561773 for biotransformation under anaerobic condition. The drug concentrations were measured over 9 timepoints collected between 0 and 24 hours of incubation by liquid-chromatography-coupled mass spectrometry (LC–MS)
# Condition Details: 2 µM
Assay Endpoint: Bacterial Biotransformation

Bacterial Biotransformation reading for CC(C)(C)NC(=O)[C@H]1CC[C@H]2[C@@H]3CC[C@H]4NC(=O)C=C[C@]4(C)[C@H]3CC[C@]12C [FINASTERIDE] : Compound metabolized

Measured Bacterial Biotransformation of Cc1cc2c(s1)Nc1ccccc1N=C2N1CCN(C)CC1 : Compound NOT metabolized

The molecule listed as CNNCc1ccc(C(=O)NC(C)C)cc1 shows Bacterial Biotransformation equal to Compound metabolized

The molecule listed as O=C1C(CC[S+]([O-])c2ccccc2)C(=O)N(c2ccccc2)N1c1ccccc1 (stereo unspecified) has a reported Bacterial Biotransformation of Compound metabolized

The reported Bacterial Biotransformation of the molecule Br.COc1ccc2c(c1)[C@]13CCCC[C@@H]1[C@H](C2)N(C)CC3.O [DEXTROMETHORPHAN HYDROBROMIDE] was Compound metabolized

Next:
The molecule listed as CN[C@H]1CC[C@@H](c2ccc(Cl)c(Cl)c2)c2ccccc21 has a reported Bacterial Biotransformation of Compound NOT metabolized

Bacterial Biotransformation recorded for this molecule, CC[C@H](C)C(=O)O[C@H]1CCC=C2C=C[C@H](C)[C@H](CC[C@@H]3C[C@@H](O)CC(=O)O3)[C@H]21 , is Compound metabolized

Query Br.CN1CCC[C@@H]1Cc1c[nH]c2ccc(CCS(=O)(=O)c3ccccc3)cc12 [ELETRIPTAN HYDROBROMIDE] yields Bacterial Biotransformation of Compound metabolized

Form field Bacterial Biotransformation, entry CCOC(=O)C1=C[C@]2(CC)CCCN3CCc4c(n1c1ccccc41)[C@@H]32 : Compound metabolized

Field Bacterial Biotransformation (entry Cc1cc(C)cc(OCC2CNC(=O)O2)c1 (stereo unspecified) ) reads Compound metabolized

Just so you know, measured Bacterial Biotransformation for CN(C/C=C/C#CC(C)(C)C)Cc1cccc2ccccc12 came out at Compound NOT metabolized

====

# Assay Comment: The drug is tested on Z-027 corresponding to metagenome with ENA study accession number: PRJEB37062 and ENA sample accession number: ERS12561826 for biotransformation under anaerobic condition. The drug concentrations were measured over 9 timepoints collected between 0 and 24 hours of incubation by liquid-chromatography-coupled mass spectrometry (LC–MS)
# Condition Details: 2 µM
Assay Endpoint: Bacterial Biotransformation

The molecule identified as CCCC(C)(COC(N)=O)COC(=O)NC(C)C (stereo not given) [CARISOPRODOL] registered its Bacterial Biotransformation at Compound metabolized

Bacterial Biotransformation reported for this molecule O=C(NC(Cc1cc(=O)[nH]c2ccccc12)C(=O)O)c1ccc(Cl)cc1 (stereo not given) [REBAMIPIDE] : Compound NOT metabolized

Bacterial Biotransformation for C[C@@H](c1ncncc1F)[C@](O)(Cn1cncn1)c1ccc(F)cc1F [VORICONAZOLE] is Compound NOT metabolized

Kindly note the recorded Bacterial Biotransformation for COc1ccc(C(CN(C)C)C2(O)CCCCC2)cc1 (stereo not given) [VENLAFAXINE] , which is Compound NOT metabolized

New cases:
Query OCCN(CCO)c1nc(N2CCCCC2)c2nc(N(CCO)CCO)nc(N3CCCCC3)c2n1 [DIPYRIDAMOLE] yields Bacterial Biotransformation of Compound metabolized

// field: Bacterial Biotransformation; key: CC(NC(C)(C)C)C(=O)c1cccc(Cl)c1 (stereo not given) [BUPROPION] ; value = Compound NOT metabolized

molecule COc1ccc2cc([C@H](C)C(=O)O)ccc2c1 [NAPROXEN] , Bacterial Biotransformation observed: Compound NOT metabolized

The recorded Bacterial Biotransformation for Br.CN1CCC[C@@H]1Cc1c[nH]c2ccc(CCS(=O)(=O)c3ccccc3)cc12 [ELETRIPTAN HYDROBROMIDE] is Compound NOT metabolized

Form field Bacterial Biotransformation, entry C[C@H]1C[C@H]2[C@@H]3CCC4=CC(=O)C=C[C@]4(C)[C@@]3(F)[C@@H](O)C[C@]2(C)[C@@]1(O)C(=O)CO [BETAMETHASONE] : Compound NOT metabolized

Measured Bacterial Biotransformation of N=C(N)NC(=O)Cc1c(Cl)cccc1Cl [GUANFACINE] : Compound NOT metabolized
